Biological target: EcSDH (shikimate dehydrogenase enzyme of Escherichia coli) (Escherichia coli)
Construct: 6-Histidine tag (pCold-I) (N, cleaved yes); made in house; host or cells: E. coli ΔaroE::KanR (JW3242, Keio collection) carrying pCold-EcSDH
Test: EcSDH enzymatic activity assay (NADPH oxidation at 340 nm, DHS as substrate)
Assay type: biochemical
Measured Ki, listed per entry.
Remember to put the unit after the number in your answer.

• O=C(NCCCCCCO)C1=C[C@@H](O)[C@@H](O)[C@H](O)C1 [Mon6] = 587 µM

Item O=C(NCCCNC(=O)C1=C[C@@H](O)[C@@H](O)[C@H](O)C1)C1=C[C@@H](O)[C@@H](O)[C@H](O)C1 [Dim3] has what recorded Ki?
400 µM

Item O=C(NCCCO)C1=C[C@@H](O)[C@@H](O)[C@H](O)C1 [Mon3] has what recorded Ki?
733 µM

----------
Measured MIC, listed per entry.
System: E. coli strain JM101
Test: Minimal inhibitory concentration (MIC), broth microdilution
Type: cell-based
Conditions: Escherichia coli, LB media, 37 °C, 16 h, tested 4-512 mg/l, duplicate
Could you give me the number in µg/mL? Just the number is fine.

• O=C(NCCCCCO)C1=C[C@@H](O)[C@@H](O)[C@H](O)C1 = 512
• O=C(NCCCCO)C1=C[C@@H](O)[C@@H](O)[C@H](O)C1 = 512
• O=C(NCCCNC(=O)C1=C[C@@H](O)[C@@H](O)[C@H](O)C1)C1=C[C@@H](O)[C@@H](O)[C@H](O)C1 = 512
• O=C(NCCCO)C1=C[C@@H](O)[C@@H](O)[C@H](O)C1 = 512
• O=C(NCCNC(=O)C1=C[C@@H](O)[C@@H](O)[C@H](O)C1)C1=C[C@@H](O)[C@@H](O)[C@H](O)C1 = 512
• O=C(NCCCCCCO)C1=C[C@@H](O)[C@@H](O)[C@H](O)C1 = 512

Field: next compound
Item `O=C(NCCCCNC(=O)C1=C[C@@H](O)[C@@H](O)[C@H](O)C1)C1=C[C@@H](O)[C@@H](O)[C@H](O)C1` has what recorded MIC?
512

----------
This section lists pIC50 readings for UniProtKB P15770.
Schema: pIC50 number; meaning minus log10 of the concentration expressed in molar units.

- O=C(NCCCCO)C1=C[C@@H](O)[C@@H](O)[C@H](O)C1 [Mon4]: 3.05
- O=C(NCCNC(=O)C1=C[C@@H](O)[C@@H](O)[C@H](O)C1)C1=C[C@@H](O)[C@@H](O)[C@H](O)C1 [Dim2]: 3.23
- O=C(NCCCNC(=O)C1=C[C@@H](O)[C@@H](O)[C@H](O)C1)C1=C[C@@H](O)[C@@H](O)[C@H](O)C1 [Dim3]: 3.23
- O=C(NCCCCCCO)C1=C[C@@H](O)[C@@H](O)[C@H](O)C1 [Mon6]: 3.08
- O=C(NCCCCCO)C1=C[C@@H](O)[C@@H](O)[C@H](O)C1 [Mon5]: 3.02

Lab request: please report pIC50 under test system UniProtKB P15770 for O=C(NCCCCNC(=O)C1=C[C@@H](O)[C@@H](O)[C@H](O)C1)C1=C[C@@H](O)[C@@H](O)[C@H](O)C1 [Dim4]
3.19

Lab request: please report pIC50 under test system UniProtKB P15770 for O=C(NCCCO)C1=C[C@@H](O)[C@@H](O)[C@H](O)C1 [Mon3]
3.02

----------
Biological target: EcSDH (shikimate dehydrogenase enzyme of Escherichia coli) (Escherichia coli, UniProt P15770)
Construct: 6-Histidine tag (pCold-I) (N, cleaved yes); made in house; host or cells: E. coli ΔaroE::KanR (JW3242, Keio collection) carrying pCold-EcSDH
Sequence (P15770 whole entry): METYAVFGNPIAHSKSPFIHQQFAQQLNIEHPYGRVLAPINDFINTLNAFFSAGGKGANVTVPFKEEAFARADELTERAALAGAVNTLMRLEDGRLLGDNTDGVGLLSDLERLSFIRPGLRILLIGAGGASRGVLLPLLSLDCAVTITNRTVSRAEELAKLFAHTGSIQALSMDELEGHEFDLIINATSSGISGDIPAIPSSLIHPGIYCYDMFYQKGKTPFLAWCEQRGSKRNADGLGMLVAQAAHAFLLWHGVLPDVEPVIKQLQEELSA
Test: EcSDH enzymatic activity assay (NADPH oxidation at 340 nm, DHS as substrate)
Format: biochemical
Conditions: 25 °C, NADPH 0.21 mM, DHS 0.0625-1.5 mM, mixed type inhibition, triplicate
metric: KI (dissociation constant for the enzyme-substrate-inhibitor complex) (µM)
Could you give me the number in µM? Just the number is fine.

* O=C(NCCCCNC(=O)C1=C[C@@H](O)[C@@H](O)[C@H](O)C1)C1=C[C@@H](O)[C@@H](O)[C@H](O)C1 | 945
* O=C(NCCCCO)C1=C[C@@H](O)[C@@H](O)[C@H](O)C1 | 1145
* O=C(NCCNC(=O)C1=C[C@@H](O)[C@@H](O)[C@H](O)C1)C1=C[C@@H](O)[C@@H](O)[C@H](O)C1 | 831
* O=C(NCCCCCCO)C1=C[C@@H](O)[C@@H](O)[C@H](O)C1 | 1188
* O=C(NCCCO)C1=C[C@@H](O)[C@@H](O)[C@H](O)C1 | 1214

Item `O=C(NCCCCCO)C1=C[C@@H](O)[C@@H](O)[C@H](O)C1` has what recorded KI (dissociation constant for the enzyme-substrate-inhibitor complex)?
1483

Item `O=C(NCCCNC(=O)C1=C[C@@H](O)[C@@H](O)[C@H](O)C1)C1=C[C@@H](O)[C@@H](O)[C@H](O)C1` has what recorded KI (dissociation constant for the enzyme-substrate-inhibitor complex)?
896

----------
This section lists Ki readings for EcSDH (shikimate dehydrogenase enzyme of Escherichia coli) (Escherichia coli).
Could you give me the number in µM? Just the number is fine.

Solved entries (count: 3):
- O=C(NCCNC(=O)C1=C[C@@H](O)[C@@H](O)[C@H](O)C1)C1=C[C@@H](O)[C@@H](O)[C@H](O)C1: 416
- O=C(NCCCCCO)C1=C[C@@H](O)[C@@H](O)[C@H](O)C1: 642
- O=C(NCCCCO)C1=C[C@@H](O)[C@@H](O)[C@H](O)C1: 717

Item `O=C(NCCCCNC(=O)C1=C[C@@H](O)[C@@H](O)[C@H](O)C1)C1=C[C@@H](O)[C@@H](O)[C@H](O)C1` has what recorded Ki?
458

Attribution: paper PMC6009893
